test system: Mus musculus; assay: Phototoxicity in Swiss Albino mouse assessed as ear thickness at 140 mg/kg, po after 72 hrs of irradiation; assay type: organism-based; set-up: dose 140 mg/kg, route oral; details: in vivo
METRIC: Activity (mm)
State just the number; it will be interpreted in mm.

Reported Activity for `CC(C)(C)n1cc(C(=O)O)c(=O)c2cc([N+](=O)[O-])c(N3CCSCC3)nc21` : what is it?
0.3

Reported Activity for `CC1(C)COCN1c1nc2c(cc1[N+](=O)[O-])c(=O)c(C(=O)O)cn2C(C)(C)C` : what is it?
0.3

Reported Activity for CC1CN(c2nc3c(cc2[N+](=O)[O-])c(=O)c(C(=O)O)cn3-c2ccc(F)cc2)CC(C)O1 (stereo not drawn) : what is it?
0.3

###

Please go through the items and note down their log10(MIC).
test system: Mycolicibacterium smegmatis; assay: Antimicrobial activity against Mycobacterium smegmatis by agar dilution method; type: functional
Would you kindly interpret these values as log10 of MIC expressed in µM?

Find log10(MIC) (Mycolicibacterium smegmatis) for the entry `CC(C)(C)n1cc(C(=O)O)c(=O)c2cc([N+](=O)[O-])c(N3CCN(Cc4ccc5c(c4)OCO5)CC3)nc21`
0.79

Find log10(MIC) (Mycolicibacterium smegmatis) for the entry `CC(C)(C)n1cc(C(=O)O)c(=O)c2cc([N+](=O)[O-])c(N3CCC(O)(c4ccc(Cl)cc4)CC3)nc21`
1.40

Find log10(MIC) (Mycolicibacterium smegmatis) for the entry `CC1(C)COCN1c1nc2c(cc1[N+](=O)[O-])c(=O)c(C(=O)O)cn2C1CC1`
0.62

Find log10(MIC) (Mycolicibacterium smegmatis) for the entry `O=C(O)c1cn(-c2ccc(F)cc2)c2nc(N3CCC(n4c(=O)[nH]c5cc(Cl)ccc54)CC3)c([N+](=O)[O-])cc2c1=O`
1.03

Find log10(MIC) (Mycolicibacterium smegmatis) for the entry `CC(C)(C)n1cc(C(=O)O)c(=O)c2cc([N+](=O)[O-])c(N3CCSCC3)nc21`
0.30

From: ChEMBL document CHEMBL1138270
